Every entry's value here was drawn from ChEMBL document CHEMBL4219255.

Property: remaining at 2 h, 50 µM; scope: individual molecules
experiment: Drug metabolism in human keratinocytes assessed as residual substrate levels at 50 uM up to 120 mins by HPLC-UV analysis; format: ADME, cell-based, Keratinocyte; conditions: read-out: Stability
Answer in %, number only, no unit symbol.

{"columns": ["Molecule", "remaining at 2 h, 50 µM / %"],
 "data": [
  ["COc1cc(CNC(=O)COC(=O)/C=C(\\C)CCC=C(C)C)c(I)cc1O", 104],
  ["COc1cc(CNC(=O)CCCC/C=C/C(C)C)ccc1O [CAPSAICIN]", 100],
  ["CC(C)=CCC/C(C)=C/CC/C(C)=C/CC/C=C(\\C)CC/C=C(\\C)CCC(=O)OCC(=O)NCc1ccc(O)c(O)c1", 70.2],
  ["CCCCCCCCCCCC(=O)OCC(=O)NCc1ccc(O)c(OC)c1", 22.2]
]}

Consider the additional molecule presented here.
In: I'd like to know its remaining at 2 h, 50 µM. The molecule in question is CCCCCCCCCCCC(=O)OCC(=O)NCc1cc(OC)c(O)cc1I
Out: 22.6
